Data provenance: patent US20210047278A1

target: FBW7^ARG+pCycE (Homo sapiens, UniProt Q969H0, R505L); construct: GST (TEV site and flexible linker) (N, cleaved yes); made in house; host or cells: SF9 insect cells (baculovirus); test: FBW7^ARG-cyclin E agonist ALPHAscreen (primary PRUN, confirmation CRUN1, dose-response DRUN); type: binding; conditions: DRUN dose-response, raw curve fit; read-out: FBW7 ACT EC50 Curve Fit Raw, Molar
Sequence (Q969H0 64-707 R505L): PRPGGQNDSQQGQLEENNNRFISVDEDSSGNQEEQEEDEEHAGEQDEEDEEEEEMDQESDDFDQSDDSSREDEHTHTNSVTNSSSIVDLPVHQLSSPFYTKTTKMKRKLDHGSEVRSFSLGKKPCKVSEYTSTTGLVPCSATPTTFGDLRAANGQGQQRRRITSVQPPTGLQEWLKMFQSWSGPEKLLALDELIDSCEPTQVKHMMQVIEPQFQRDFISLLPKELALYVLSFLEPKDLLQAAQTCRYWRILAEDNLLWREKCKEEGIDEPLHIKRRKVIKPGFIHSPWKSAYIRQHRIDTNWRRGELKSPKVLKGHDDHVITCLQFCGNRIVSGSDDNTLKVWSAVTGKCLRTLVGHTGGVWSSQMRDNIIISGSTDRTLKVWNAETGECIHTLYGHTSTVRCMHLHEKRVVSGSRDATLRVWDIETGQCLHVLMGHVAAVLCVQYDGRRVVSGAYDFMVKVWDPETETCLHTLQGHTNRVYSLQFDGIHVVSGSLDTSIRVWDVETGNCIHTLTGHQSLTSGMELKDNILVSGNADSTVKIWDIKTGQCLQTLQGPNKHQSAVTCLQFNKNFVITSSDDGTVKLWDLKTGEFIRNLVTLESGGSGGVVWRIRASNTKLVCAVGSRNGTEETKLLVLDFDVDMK
Sequence (P63208 2-163 partner): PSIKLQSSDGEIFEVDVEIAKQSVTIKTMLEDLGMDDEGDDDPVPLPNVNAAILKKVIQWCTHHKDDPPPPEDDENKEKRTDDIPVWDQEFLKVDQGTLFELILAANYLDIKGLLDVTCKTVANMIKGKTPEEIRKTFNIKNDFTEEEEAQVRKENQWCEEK
pEC50: −log10 of the molar value.
Rule: Criterion met for pEC50 not less than 5, Criterion not met for anything less.

Previously resolved entries follow.
CCC(c1nnnn1CCC(C)C)N1CCN(C(=O)c2ccco2)CC1 (centres unmarked) [SR-01000340422-1]: Criterion not met
O=C(NCc1ccc(C(=O)NCCc2ccccn2)cc1)Nc1ccc(-c2cn[nH]c2)cc1 [SR-00000005517-1]: Criterion not met
CCN(Cc1ccccc1)C(=O)c1cc2c(=O)n3cccc(C)c3nc2n1C [SR-01000140943-1]: Criterion not met
Cc1cc(OCC(=O)Nc2ccc3oc(-c4ccccc4Br)nc3c2)cc(C)c1Cl [SR-01000421466-1]: Criterion met
O=C(NCCCN1CCc2ccccc2C1)Nc1ccc(Br)cc1 [SR-01000123578-1]: Criterion met
Cc1ccc(-c2nnc(N3CCN(C(=O)c4ccco4)CC3)c3ccccc23)cc1 [SR-01000505133-1]: Criterion not met
CCCOc1ccc(C2C(C(=O)OC)=CN(CCOC)C=C2C(=O)OC)cc1 [SR-01000259436-1]: Criterion not met
C/C(=N\Nc1cccc(C(F)(F)F)c1)C1CC1 [SR-01000041073-1]: Criterion not met
CC1=C(C(=O)OC2CCCCC2)C(c2ccc(F)cc2)C2=C(CC(c3ccccc3)CC2=O)N1 (centres unmarked) [SR-01000420805-1]: Criterion not met
Cc1ccc2nc(SCC(=O)Nc3ncc(C)s3)c(C#N)cc2c1 [SR-01000340506-1]: Criterion not met

Hi team, for COc1cccc(/C=N/c2cnn(C)c2C(N)=O)c1O [SR-01000314216-1] , is the recorded pEC50 at or above 5? Criterion not met

Another molecule to look at: O=c1c2cnn(-c3ccccc3)c2nnn1Cc1cccnc1 [SR-01000355082-1] Criterion met

Same read-out for COc1ccc(NC(=O)c2cc(S(=O)(=O)N3CCN(c4ccccn4)CC3)ccc2F)cc1 [SR-01000579121-1] ? Criterion met

Now this one: Cc1ccnc(N2CCC(C(=O)Nc3ccccc3Br)CC2)n1 [SR-01000330228-1] Criterion met

// same read-out, input: CCOc1ccc(Br)cc1C1C2=C(CCCC2=O)N(CC(=O)O)C2=C1C(=O)CCC2 [SR-01000476712-1] Criterion met
